- System: HO-1-N-1 (Oral Cavity Carcinoma)
- experiment.summary: combination Emax (second highest fraction inhibited in the dose matrix, 72 h); higher = more inhibition; extreme values may be limits of the assay
measurement.label: combination Emax
Answer with a bare number; do not write a unit.

Q: Quick one: combination Emax for CC(=O)c1c(C)c2cnc(Nc3ccc(N4CCNCC4)cn3)nc2n(C2CCCC2)c1=O [Palbociclib] + Cc1c2c(nn1C)CSCc1cc(n(C)n1)CSc1cc(c3ccccc3c1)OCCCc1c(C(=O)O)n(C)c3c-2c(Cl)ccc13 [AZD5991] (first compound max 10 µM, 7x7, partner max 1 µM) ?
Ans: 0.597

Q: If you can, please state the reported combination Emax value of CC(=O)c1c(C)c2cnc(Nc3ccc(N4CCNCC4)cn3)nc2n(C2CCCC2)c1=O [Palbociclib] + Cn1cnc2c(F)c(Nc3ccc(Br)cc3Cl)c(C(=O)NOCCO)cc21 [Selumetinib] (first compound max 10 µM, 7x7, partner max 10 µM) .
Ans: 0.745

Q: // combination Emax lookup, key: Cc1c2c(nn1C)CSCc1cc(n(C)n1)CSc1cc(c3ccccc3c1)OCCCc1c(C(=O)O)n(C)c3c-2c(Cl)ccc13 [AZD5991] + Cn1cnc2c(F)c(Nc3ccc(Br)cc3Cl)c(C(=O)NOCCO)cc21 [Selumetinib] (first compound max 1 µM, 7x7, partner max 3 µM)
Ans: 0.919

Q: Recorded combination Emax for COc1cccc(OCCCN)c1-c1cc(Nc2cnc(C#N)cn2)n[nH]1 [Prexasertib] + C[C@@H]1COCCN1C2=NC(=NC(=C2)C3(CC3)[S@](=N)(=O)C)C4=C5C=CNC5=NC=C4 [AZD6738] (first compound max 1 µM, 7x7, partner max 10 µM) , please?
Ans: 0.898

Q: Please give the measured combination Emax for this compound: C[C@@H]1COCCN1c1cc(C2([S@](C)(=N)=O)CC2)nc(-c2ccnc3[nH]ccc23)n1 [AZD6738] + C1CC(C1)(C(=O)[O-])C(=O)[O-].N.N.[Pt+2] [Carboplatin] (first compound max 10 µM, 7x7, partner max 10 µM)
Ans: 0.779

Q: Which combination Emax is listed for COc1nnc2ccc(N3CCC(c4ccc(OCCN5CCN(C)C(=O)[C@H]5C)cc4)CC3)nn12 [AZD5153] + C[C@@H]1COCCN1C2=NC(=NC(=C2)C3(CC3)[S@](=N)(=O)C)C4=C5C=CNC5=NC=C4 [AZD6738] (first compound max 1 µM, 7x7, partner max 10 µM) ?
Ans: 0.795

Q: Look up combination Emax for this compound: NC1(C(=O)N[C@@H](CCO)c2ccc(Cl)cc2)CCN(c2ncnc3[nH]ccc23)CC1 [Capivasertib] + CCN(CCO)CCCOc1ccc2c(Nc3cc(CC(=O)Nc4cccc(F)c4)[nH]n3)ncnc2c1 [AZD2811] (first compound max 10 µM, 7x7, partner max 1 µM)
Ans: 0.833

Q: Consider the compound NC1(C(=O)N[C@@H](CCO)c2ccc(Cl)cc2)CCN(c2ncnc3[nH]ccc23)CC1 [Capivasertib] + Cn1cnc2c(F)c(Nc3ccc(Br)cc3Cl)c(C(=O)NOCCO)cc21 [Selumetinib] (first compound max 10 µM, 7x7, partner max 10 µM) and give its measured combination Emax.
Ans: 0.848

Q: combination Emax lookup needed for C[C@@H](c1ccc2nccn2c1)n1nnc2ncc(-c3cnn(C)c3)nc21 [Savolitinib] + CC1(C)CCC(CN2CCN(c3ccc(C(=O)NS(=O)(=O)c4ccc(NCC5CCOCC5)c([N+](=O)[O-])c4)c(Oc4cnc5[nH]ccc5c4)c3)CC2)=C(c2ccc(Cl)cc2)C1 [Venetoclax] (first compound max 1 µM, 7x7, partner max 1 µM) , thanks.
Ans: 0.158

Q: So what does the record say about combination Emax for CN(CCO)CC[C@H](CSc1ccccc1)Nc1ccc(S(=O)(=O)NC(=O)c2ccc(N3CCC([C@@H](O)c4ccccc4-c4ccc(Cl)cc4)CC3)cc2)cc1S(=O)(=O)C(F)(F)F [AZD4320] + C[C@@H](Nc1cc(F)cc(F)c1)c1cc(C(=O)N(C)C)cc2c(=O)cc(N3CCOCC3)oc12 [AZD8186] (first compound max 1 µM, 7x7, partner max 3 µM) ?
Ans: 0.735

Q: // lookup combination Emax for Cc1c2c(nn1C)CSCc1cc(n(C)n1)CSc1cc(c3ccccc3c1)OCCCc1c(C(=O)O)n(C)c3c-2c(Cl)ccc13 [AZD5991] + C[C@@H]1COCCN1C2=NC(=NC(=C2)C3(CC3)[S@](=N)(=O)C)C4=C5C=CNC5=NC=C4 [AZD6738] (first compound max 1 µM, 7x7, partner max 10 µM)
Ans: 0.928

Q: Request the reported combination Emax associated with CC1(C)CCC(CN2CCN(c3ccc(C(=O)NS(=O)(=O)c4ccc(NCC5CCOCC5)c([N+](=O)[O-])c4)c(Oc4cnc5[nH]ccc5c4)c3)CC2)=C(c2ccc(Cl)cc2)C1 [Venetoclax] + CCN(CCO)CCCOc1ccc2c(Nc3cc(CC(=O)Nc4cccc(F)c4)[nH]n3)ncnc2c1 [AZD2811] (first compound max 1 µM, 7x7, partner max 1 µM)
Ans: 0.687

Q: Name the reported combination Emax value associated with the compound CCc1c2c(nc3ccc(O)cc13)-c1cc3c(c(=O)n1C2)COC(=O)[C@]3(O)CC [SN-38] + CN(C)CCCOc1ccc(-c2ccc3ncc4c(c3c2)n(C2CCOCC2)c(=O)n4C)cn1 [AZD0156] (first compound max 0.3 µM, 7x7, partner max 1 µM)
Ans: 1
